Each recorded value in this set is attributed to the kinase profiling compilation of Christmann-Franck et al. (2016).

Measured residual activity by item
# System name: INSRR (human)
# Assay explanation: radiometric filter-binding kinase assay
# Condition description: compound 10.0 µM
Value type: residual activity

| Compound | Value type | Measured result |
| --- | --- | --- |
| NC(=O)c1cc(-c2ccnc(NC3CCCCC3)c2)nc(N2CCNCC2)c1 | residual activity | 97% |
| CN1C(=O)[C@@H](Cc2c[nH]c3ccccc23)NC1=S | residual activity | 87% |
| c1ccc2c(-c3cnn4cc(-c5ccc(N6CCNCC6)cc5)cnc34)ccnc2c1 | residual activity | 37% |
| Nc1cccc2c1CN(C1CCC(=O)NC1=O)C2=O (stereo unspecified) | residual activity | 109% |
| CCc1cncnc1N1CCN(Cc2nc3cc(C(F)(F)F)ccc3[nH]2)CC1 | residual activity | 77% |
| C[C@H]1CCCC(=O)CCC/C=C/c2cc(O)cc(O)c2C(=O)O1 | residual activity | 41% |
| NS(=O)(=O)OC[C@@H]1C[C@@H](n2ccc3c(N[C@H]4CCc5ccccc54)ncnc32)C[C@@H]1O | residual activity | 83% |
| COC(=O)/C=C/C(=O)OC | residual activity | 103% |
| NC(=O)Nc1ccc2c(c1)/C(=C/c1cc(-c3cccnc3)c[nH]1)C(=O)N2 | residual activity | 5% |
| Cc1ccc(=O)n(-c2ccccc2)c1 | residual activity | 99% |
| N#Cc1c(C2CCNCC2)cc(-c2c(O)cccc2OCC2CC2)nc1N | residual activity | 61% |
